These data points were gathered from ChEMBL document CHEMBL4808148.

Molecular target: Protein deacetylase HDAC6 (Homo sapiens)
Details: at 10 µM
Hit rate of the full screen: of about 5,600 compounds, about 390 (7%) showed an effect of 50% or more. The full list was thinned out, with strong results kept by preference.
endpoint_name: inhibition (%)
Reply with just the number (in %).

INSERT INTO results (compound, system_under_test, endpoint_name, observed_value) VALUES
  ('CC(C)(C)c1cc(C(C)(C)C)c2c(c1)C(O)(C(F)(F)F)C(=O)O2 (racemic)', 'Protein deacetylase HDAC6 (Homo sapiens)', 'inhibition', -6.8),
  ('COc1ccc2nc3ccc(Cl)cc3c(SCCCN)c2c1', 'Protein deacetylase HDAC6 (Homo sapiens)', 'inhibition', 31.8),
  ('CCOC(=O)C12CC1/C(=N\O)c1ccccc1O2 (stereo unspecified)', 'Protein deacetylase HDAC6 (Homo sapiens)', 'inhibition', 38.5);

Dear colleague, I am looking for the recorded inhibition of the following compound: "CCOC(=O)[C@@H](C)Oc1ccc(Oc2nc3ccc(Cl)cc3o2)cc1"
14.5

Dear colleague, I am looking for the recorded inhibition of the following compound: "O=C1c2ccccc2-c2c(NCCc3ccccc3)c(=O)[nH]c3cccc1c23"
14.4

Dear colleague, I am looking for the recorded inhibition of the following compound: CC(C)c1cccc2c1OC(C(C)C)C(=S)N2CC(=O)O (stereo unspecified)
33

Dear colleague, I am looking for the recorded inhibition of the following compound: "O=C(O)c1ccccc1NC(=O)C12CC3CC(CC(C3)C1)C2"
8.92

Dear colleague, I am looking for the recorded inhibition of the following compound: "COC(=O)/C=C/C(=O)OCCN1C(=O)CCC1=O"
-0.93

Dear colleague, I am looking for the recorded inhibition of the following compound: "CNc1ccc([N+](=O)[O-])cc1-n1cnc(-c2ccc(C(F)(F)F)cc2)c1"
-2.07

Dear colleague, I am looking for the recorded inhibition of the following compound: "CC1(C)OC(=O)C(OCC2CC2)=C1c1ccc(S(C)(=O)=O)cc1"
-6.89

Dear colleague, I am looking for the recorded inhibition of the following compound: "CCOC(=O)c1ccccc1OC(N)=O"
7.12

----------
Target: Protein deacetylase HDAC6 (Homo sapiens) (UniProt Q9UBN7)
Conditions: at 10 µM
In all, about 5,600 compounds went through this assay and about 390 (7%) showed an effect of 50% or more. What follows is part of a selection rich in strong results, with near analogues and random picks from the rest.
endpoint_name: inhibition (%)
Reply with just the number (in %).

// solved cases for inhibition follow
INSERT INTO assay_data (compound, system_under_test, observed_value) VALUES
  ('COc1cc(OC)nc(O[C@H](C(=O)O)C(OC)(c2ccccc2)c2ccccc2)n1', 'Protein deacetylase HDAC6 (Homo sapiens) (UniProt Q9UBN7)', -2.76),
  ('Cc1cccc2c1CC[C@H](CN1CCC(c3c(Cl)cccc3Cl)CC1)C[C@@H]2O', 'Protein deacetylase HDAC6 (Homo sapiens) (UniProt Q9UBN7)', -4.44),
  ('C[C@]12CC[C@@H]3c4ccc(O)cc4CC[C@H]3[C@@H]1[C@@H](O)[C@@H](O)[C@@H]2O', 'Protein deacetylase HDAC6 (Homo sapiens) (UniProt Q9UBN7)', 5.04);

Value wanted: inhibition (Protein deacetylase HDAC6 (Homo sapiens) (UniProt Q9UBN7)) of entry "O=C(Nc1ccc(S(=O)(=O)C(F)(F)F)cc1)C1=CCN(c2ncccc2C(F)(F)F)CC1"
8.48

Value wanted: inhibition (Protein deacetylase HDAC6 (Homo sapiens) (UniProt Q9UBN7)) of entry "CCNCc1cc(C(C)(C)C)c(O)c(C(C)(C)C)c1"
36.2

Value wanted: inhibition (Protein deacetylase HDAC6 (Homo sapiens) (UniProt Q9UBN7)) of entry "CO[C@@H]1[C@H](O)[C@@H](CO)O[C@H]1n1cnc2c(NC3CCCCC3)ncnc21"
13.2

Value wanted: inhibition (Protein deacetylase HDAC6 (Homo sapiens) (UniProt Q9UBN7)) of entry "COc1cc(/C=C/C(N)=O)cc(OC)c1OC"
13.3

Value wanted: inhibition (Protein deacetylase HDAC6 (Homo sapiens) (UniProt Q9UBN7)) of entry "O=C(Nc1cccc(C(F)(F)F)c1)Nc1ccc(Br)cc1-c1nnn[nH]1"
-9.24

----------
Listing of entries alongside the reported inhibition.
Target: Protein deacetylase HDAC6 (Homo sapiens)
Conditions: at 10 µM
The whole screen tested about 5,600 compounds, of which about 390 (7%) showed an effect of 50% or more. This excerpt belongs to a sample that is enriched for strong results.

INSERT INTO measurements (molecule, observed_value) VALUES
  ('NC(=O)c1cccc(-c2cccc(OC(=O)NC3CCCCC3)c2)c1', '95.1%');

Value wanted: inhibition (Protein deacetylase HDAC6 (Homo sapiens)) of entry "CCCCCCCCCCCCCCCCCC(=O)OC[C@@H](O)[C@H]1OC[C@H](O)[C@H]1O"
1.06%

Value wanted: inhibition (Protein deacetylase HDAC6 (Homo sapiens)) of entry CCc1noc(C)c1-c1[nH]c2ccccc2c1C(O)CN(C)C (stereo unspecified)
3.93%

Value wanted: inhibition (Protein deacetylase HDAC6 (Homo sapiens)) of entry "CCc1c2c(nc3ccc(OC(=O)N4CCC(N5CCCCC5)CC4)cc13)-c1cc3c(c(=O)n1C2)COC(=O)[C@]3(O)CC"
-2.26%

Value wanted: inhibition (Protein deacetylase HDAC6 (Homo sapiens)) of entry "CC(C)(C)c1ccc(-c2nc3ccccc3[nH]2)cc1"
105%

Value wanted: inhibition (Protein deacetylase HDAC6 (Homo sapiens)) of entry "CN1CCN(c2cccc3[nH]c(=O)oc23)CC1"
26.1%

Value wanted: inhibition (Protein deacetylase HDAC6 (Homo sapiens)) of entry "CCOCOC[C@H](C[C@H](C)C(=O)NO)NC(=O)c1ccc(Oc2ccccc2)cc1"
25.9%

Value wanted: inhibition (Protein deacetylase HDAC6 (Homo sapiens)) of entry "CC(C)(C)c1ccc(O)cc1"
17.6%

Value wanted: inhibition (Protein deacetylase HDAC6 (Homo sapiens)) of entry "CCn1c(=O)n(C2=C(CO)CN(CC3CCCCCCC3)CC2)c2ccccc21"
-8.59%

Value wanted: inhibition (Protein deacetylase HDAC6 (Homo sapiens)) of entry "CCOC(=O)[C@@](C)(N)Cc1ccc(O)c(O)c1"
35%

Value wanted: inhibition (Protein deacetylase HDAC6 (Homo sapiens)) of entry "Oc1cccc(Nc2ccc(Nc3cccc(O)c3)nn2)c1"
79.8%

Value wanted: inhibition (Protein deacetylase HDAC6 (Homo sapiens)) of entry "C[C@H]1CN(Cc2ccc(CC(=O)N3CCC(Nc4cccc(F)c4)CC3)cc2)CCN1"
44.9%

Value wanted: inhibition (Protein deacetylase HDAC6 (Homo sapiens)) of entry "O=C(/C=C/c1cccc(F)c1)NC1CC1"
52.8%

----------
Molecular target: Protein deacetylase HDAC6 (Homo sapiens)
Conditions: at 10 µM
The whole screen tested about 5,600 compounds, of which about 390 (7%) showed an effect of 50% or more. The full list was thinned out, with strong results kept by preference.
endpoint_name: inhibition (%)
Reply with just the number (in %).

// solved cases for inhibition follow
INSERT INTO assay_data (molecule, observed_value) VALUES
  ('O=C(O)c1ccccc1NCCc1ccccc1', 42.4),
  ('Cc1cnc(Nc2ccc(F)cc2Cl)nc1-c1c[nH]c(C(=O)N[C@H](CO)c2cccc(Cl)c2)c1', 54.4);

Value wanted: inhibition (Protein deacetylase HDAC6 (Homo sapiens)) of entry "Cn1cc(C(=O)c2cccc3ccccc23)cc1C(=O)O"
25

Value wanted: inhibition (Protein deacetylase HDAC6 (Homo sapiens)) of entry "O=S(=O)(O)c1ccc(O)cc1"
4.16

Value wanted: inhibition (Protein deacetylase HDAC6 (Homo sapiens)) of entry "NC(=O)Cc1cccc(C(=O)c2ccccc2)c1N"
48.4

----------
Listing of entries alongside the reported inhibition.
Biological target: Protein deacetylase HDAC6 (Homo sapiens)
Sequence (whole entry): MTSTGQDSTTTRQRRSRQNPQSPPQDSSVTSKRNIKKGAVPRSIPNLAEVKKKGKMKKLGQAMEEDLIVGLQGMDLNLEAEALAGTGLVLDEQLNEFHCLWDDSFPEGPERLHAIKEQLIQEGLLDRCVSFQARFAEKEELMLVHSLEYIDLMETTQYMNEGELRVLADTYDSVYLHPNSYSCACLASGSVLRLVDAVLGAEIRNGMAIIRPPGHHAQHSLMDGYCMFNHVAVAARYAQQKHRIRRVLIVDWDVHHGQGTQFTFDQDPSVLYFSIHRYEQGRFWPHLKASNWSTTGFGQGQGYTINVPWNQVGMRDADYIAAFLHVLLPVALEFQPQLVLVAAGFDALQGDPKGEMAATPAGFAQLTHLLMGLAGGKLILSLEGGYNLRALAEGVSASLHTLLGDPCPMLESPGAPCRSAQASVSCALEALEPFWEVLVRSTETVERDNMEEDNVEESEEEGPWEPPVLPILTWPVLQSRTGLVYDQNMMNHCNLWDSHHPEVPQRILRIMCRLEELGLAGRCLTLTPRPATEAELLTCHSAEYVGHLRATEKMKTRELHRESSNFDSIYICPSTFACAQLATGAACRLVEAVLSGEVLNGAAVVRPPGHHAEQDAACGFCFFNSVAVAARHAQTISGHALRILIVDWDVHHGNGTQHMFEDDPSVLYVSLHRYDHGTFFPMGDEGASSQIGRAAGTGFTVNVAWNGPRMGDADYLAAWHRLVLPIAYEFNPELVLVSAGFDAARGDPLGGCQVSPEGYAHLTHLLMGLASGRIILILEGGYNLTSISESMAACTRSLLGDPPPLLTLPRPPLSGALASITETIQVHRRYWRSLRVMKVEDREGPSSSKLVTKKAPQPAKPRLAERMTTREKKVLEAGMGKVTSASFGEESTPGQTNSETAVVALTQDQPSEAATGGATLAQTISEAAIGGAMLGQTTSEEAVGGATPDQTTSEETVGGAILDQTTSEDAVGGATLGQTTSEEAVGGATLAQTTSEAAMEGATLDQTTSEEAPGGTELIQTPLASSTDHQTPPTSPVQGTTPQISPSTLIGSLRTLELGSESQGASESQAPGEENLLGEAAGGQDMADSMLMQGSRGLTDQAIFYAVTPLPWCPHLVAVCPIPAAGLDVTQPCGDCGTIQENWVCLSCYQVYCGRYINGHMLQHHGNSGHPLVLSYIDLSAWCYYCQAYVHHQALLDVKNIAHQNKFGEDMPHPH
Details: at 10 µM
The campaign covered roughly 5,600 compounds. About 390 (7%) showed an effect of 50% or more. Many of the other results were omitted from the sample, so strong results are more common in it than they were.
Reply with just the number (in %).

// solved cases for inhibition follow
INSERT INTO measurements (compound_structure, observed_value) VALUES
  ('NC(=O)NCCN1CCN(c2cccc(C(F)(F)F)c2)CC1', 22),
  ('COc1ccc(-n2nc3c4c([nH]cc-3c2=O)CCCCC4)cc1', 40.9),
  ('O=C(OCCN1CCOCC1)c1cccnc1Nc1cccc(C(F)(F)F)c1', 62),
  ('C[C@]12CC[C@H]3[C@@H](CCC4=CC(=O)CC[C@@]43C)[C@@H]1CC[C@@H]2C(=O)CO', 32.2),
  ('O=C(O)c1ccccc1Nc1cccc(C(F)(F)F)c1', 30.6);

Dear colleague, I am looking for the recorded inhibition of the following compound: "COc1cc(O)c(C(=O)c2ccccc2)cc1S(=O)(=O)O"
-4.32

Dear colleague, I am looking for the recorded inhibition of the following compound: "O=C(/C=C/c1ccc2ccc(C(F)(F)F)cc2n1)c1ccncc1"
36.8

Dear colleague, I am looking for the recorded inhibition of the following compound: "O=c1c2c[nH]c3ccccc3c-2nn1-c1ccc(Cl)cc1"
97.1

Dear colleague, I am looking for the recorded inhibition of the following compound: "CCOC(=O)c1c(/C(C#N)=C\N)c2ccc(Cl)c(Cl)c2n1C"
0.46

Dear colleague, I am looking for the recorded inhibition of the following compound: "CN(C)CCOc1ccc(/C(=C(/CCCl)c2ccccc2)c2ccccc2)cc1"
33.5

Dear colleague, I am looking for the recorded inhibition of the following compound: "CCOc1cc2ncc(C#N)c(Nc3ccc(F)c(Cl)c3)c2cc1NC(=O)/C=C/CN(C)C"
36.7
